tested on: Rabbit Skeletal myofibrils (rabbit psoas muscle); assay: Myofibril ATPase assay (PK/LDH NADH-coupled), skeletal myofibrils; assay type: biochemical; details: Table 7
Property name: Rabbit Psoas IC25 (µM)

Below, each entry is followed by its recorded Rabbit Psoas IC25 result.
| Compound | Rabbit Psoas IC25 / µM |
| --- | --- |
| N#Cc1cnc2c(c1)CC[C@H]2NC(=O)CN1C(=O)Nc2cccnc2C12CC2 [Compound N1] | 100 |
| C[C@H](NC(=O)CN1Cc2nc(C(F)(F)F)ccc2NC1=O)c1ccc(F)cc1F [Compound N112] | 0.2968 |
| O=C(CN1C(=O)Nc2cccnc2C12CC2)N[C@H](CO)c1ccc(F)cc1F [Compound N27] | 100 |
| Cc1c(F)cnc2c1CN(CC(=O)N[C@@H](C)c1ncc(F)cc1F)C(=O)N2 [Compound N53] | 100 |
| C[C@H](NC(=O)CN1Cc2cc(F)cnc2NC1=O)c1ccc(F)cc1F [Compound N71] | 2.804 |
| CC(C)C[C@@H](C(=O)N[C@@H](C)c1ccc(F)cc1F)N1Cc2nc(F)ccc2NC1=O [Compound N89] | 100 |

(1) COc1ccc2c(n1)CN(CC(=O)N[C@@H](C)c1ccc(F)cc1F)C(=O)N2 [Compound N119]
(2) N#Cc1ccc([C@@H](CO)NC(=O)CN2C(=O)Nc3cccnc3C23CC3)c(F)c1 [Compound N36]
(3) C[C@@H](NC(=O)CN1Cc2cc(F)cnc2NC1=O)c1ncc(F)cc1F [Compound N69]
(4) CCOc1nccc2c1CN(CC(=O)N[C@@H](C)c1ccc(F)cc1F)C(=O)N2 [Compound N121]
(5) N#Cc1nccc2c1CN(CC(=O)N[C@H](CO)c1ccc(F)cc1F)C(=O)N2 [Compound N40]
Returns the items ordered by Rabbit Psoas IC25, from maximum to minimum. Hello, could you send the labels back in the order asked? Thank you.
3, 5, 2, 1, 4

(a) C[C@H](NC(=O)CN1C(=O)Nc2ccc(O)nc2C12CC2)c1ccc(F)cc1F [Compound N42]
(b) CCOc1ccc2c(n1)CN(CC(=O)N[C@@H](C)c1ccc(F)cc1F)C(=O)N2 [Compound N118]
(c) C[C@H](NC(=O)CN1Cc2c(F)cncc2NC1=O)c1ncc(F)cc1F [Compound N64]
Number of compounds to sort: 3. Sort criterion: Rabbit Psoas IC25, ascending. Return the labels ranked in the requested order, please.
b, c, a

(I) C[C@H](NC(=O)CN1Cc2c(Cl)cncc2NC1=O)c1ccc(F)cc1F [Compound N56]
(II) C[C@H](NC(=O)CN1Cc2nc(F)ccc2NC1=O)c1ccc(F)cc1F [Compound N123]
(III) O=C(CN1Cc2c(ccnc2Cl)NC1=O)N[C@H](c1ccc(F)cc1F)C(F)(F)F [Compound N101]
(IV) C[C@H](NC(=O)CN1C(=O)Nc2cccnc2C12COC2)c1ccc(F)cc1F [Compound N35]
(V) C[C@H](NC(=O)CN1Cc2c(ccnc2C2CC2)NC1=O)c1ccc(F)cc1F [Compound N127]
Hi! Can you put these in order of Rabbit Psoas IC25, lowest number first? Write the labels in rank order as requested.
II, III, V, IV, I
(II: 0.03514 µM, III: 0.1554 µM, V: 0.2931 µM, IV: 0.9847 µM, I: 86.07 µM)

----------
Tested on: Porcine Atria myofibrils
Assay: Myofibril ATPase assay (PK/LDH NADH-coupled), atria myofibrils
Assay type: biochemical
Conditions: Table 8
Experimental: Myofibril ATPase Assay Procedure: BSA, ATP, NADH, PEP, and DTT solutions were thawed at room temperature, then transferred to ice. […] 25 μL of Buffer A was dispensed into the wells, followed by 25 μL of Buffer B. The wells were measured for absorbance at 340 nm, using a kinetic protocol in which the wells are read every 1.5-2 min for 75 min. […] In addition to the fit parameters, the EC25% is calculated, relative to the 100% normalized value. […]
Property name: Porcine Atria IC25 (nM)

Known results for compounds:
| Compound | Property name | Obs value |
| --- | --- | --- |
| C[C@H](NC(=O)CN1Cc2cc(F)cc(Cl)c2NC1=O)c1ccc(C#N)cc1F | Porcine Atria IC25 | 1740 |
| C[C@H](NC(=O)CN1Cc2c(ccc(F)c2F)NC1=O)c1cnc(C#N)cn1 | Porcine Atria IC25 | 30 |
| N#Cc1cc(F)c2c(c1)OC[C@H]2NC(=O)CN1Cc2c(ccc(F)c2C#N)NC1=O | Porcine Atria IC25 | 150 |

(A) N#Cc1ccc2c(c1)C1(CC1)N(CC(=O)N[C@@H]1COc3cc(F)cc(F)c31)C(=O)N2
(B) C[C@H](NC(=O)CN1Cc2c(C#N)cccc2NC1=O)c1ncc(C#N)cc1F
Given A and given B , which shows the smaller recorded Porcine Atria IC25? Label of pick, please.
B

(A) C[C@H](NC(=O)CN1Cc2c(ccc(F)c2F)NC1=O)c1ccc(C#N)cn1
(B) Cc1ccc([C@H](C)NC(=O)CN2Cc3cc(F)ccc3NC2=O)c(F)c1
(C) C[C@H](NC(=O)CN1Cc2c(ccc(F)c2F)NC1=O)c1ncc(C#N)cn1
Order the records, beginning with the lowest Porcine Atria IC25 and ending with the highest. Thanks in advance for listing the labels in the requested order.
C, B, A
(C: 90 nM, B: 180 nM, A: 420 nM)

(1) O=C(CN1Cc2c(ccc(F)c2F)NC1=O)N[C@@H]1CCc2cc(F)cnc21
(2) O=C(CN1Cc2cc(F)ccc2NC1=O)N[C@H]1COc2cc(F)cc(F)c21
(3) C[C@H](NC(=O)CN1Cc2c(ccc(F)c2F)NC1=O)c1ccc(C(F)(F)F)cn1
Please rank these compounds by Porcine Atria IC25 in descending order. Kindly provide the labels arranged according to the requested ordering.
2, 3, 1

(P) C[C@H](NC(=O)CN1Cc2c(Br)cccc2NC1=O)c1ccc(F)cc1F
(Q) C[C@@H](NC(=O)CN1Cc2cc(F)ccc2NC1=O)c1ccc(F)cc1F
(R) Cc1cc(C#N)nnc1C(C)NC(=O)CN1Cc2c(ccc(F)c2F)NC1=O (single isomer, unassigned)
Order the records, beginning with the lowest Porcine Atria IC25 and ending with the highest. The labels, placed in the requested order, form the answer.
R, P, Q
(R: 40 nM, P: 140 nM, Q: 100000 nM)

----------
tested on: Porcine Atria myofibrils; test: Myofibril ATPase assay (PK/LDH NADH-coupled), atria myofibrils; type: biochemical; conditions: Table 8
Property name: Porcine Atria IC25 (nM)

| Molecule | Property name | Obs value |
| --- | --- | --- |
| CC(C)C[C@@H](C(=O)N[C@@H](C)c1ccc(F)cc1F)N1Cc2cc(F)ccc2NC1=O | Porcine Atria IC25 | 100000 |
| CC(C)C[C@H](C(=O)N[C@@H](C)c1ccc(F)cc1F)N1Cc2cc(F)ccc2NC1=O | Porcine Atria IC25 | 100000 |
| C[C@@H](NC(=O)CN1Cc2c(ccc(F)c2F)NC1=O)c1ccc2ccccc2n1 | Porcine Atria IC25 | 260 |

(A) C[C@H](NC(=O)CN1C(=O)Nc2ccc(F)c(F)c2C12CC2)c1ncc(C#N)cc1F
(B) Cc1nc(C#N)cnc1[C@H](C)NC(=O)CN1C(=O)Nc2ccc(F)c(F)c2C12CC2
From the items above, decide which of A and B has the lower Porcine Atria IC25 reading. Your answer should be the label of the entry you select.
A

(P) Cc1cc(C#N)nnc1[C@@H](C)NC(=O)CN1Cc2c(ccc(F)c2F)NC1=O
(Q) Cc1nc(C#N)cnc1[C@H](C)NC(=O)CN1C(=O)Nc2ccc(F)cc2C12CC2
(R) C[C@H](NC(=O)CN1Cc2c(ccc(F)c2F)NC1=O)c1ccc(F)cc1F
(S) C[C@@H](NC(=O)CN1Cc2c(ccc(F)c2F)NC1=O)c1ncnc(C#N)c1F
(T) O=C(CN1Cc2cc(F)ccc2NC1=O)N[C@@H]1COc2cc(F)cc(F)c21
Could you please sort these 5 entries by Porcine Atria IC25 from high to low? Put the labels in the order asked and list them.
P, S, Q, R, T
(P: 10830 nM, S: 730 nM, Q: 370 nM, R: 30 nM, T: 20 nM)

----------
tested on: Rabbit Skeletal myofibrils (rabbit psoas muscle); assay: Myofibril ATPase assay (PK/LDH NADH-coupled), skeletal myofibrils; format: biochemical; details: Table 8
Property name: Rabbit Psoas IC25 (nM)

Below, 3 compounds whose answers are already recorded.
| Compound | Rabbit Psoas IC25 (nM) |
| --- | --- |
| COc1cc(C#N)ncc1[C@H](C)NC(=O)CN1Cc2c(ccc(F)c2F)NC1=O | 8828 |
| C[C@H](NC(=O)CN1Cc2c(ccc(F)c2F)NC1=O)c1ccc(C(F)(F)F)cn1 | 1400 |
| Cc1cc(F)ccc1[C@H](C)NC(=O)CN1Cc2cc(F)ccc2NC1=O | 17.5 |

(a) C[C@H](NC(=O)CN1Cc2c(ccc(C#N)c2F)NC1=O)c1ccc(F)cc1F
(b) O=C(CN1Cc2c(ccc(F)c2F)NC1=O)N[C@H]1COc2c(F)cc(F)cc2C1
(c) C[C@H](NC(=O)CN1Cc2c(F)cccc2NC1=O)c1ccc(C#N)cc1F
Write the entries in order, lowest recorded Rabbit Psoas IC25 first. Respond with the label ranking, as requested.
c, a, b
(c: 20.8 nM, a: 315.4 nM, b: 7621 nM)

(A) C[C@H](NC(=O)CN1Cc2cc(F)ccc2NC1=O)c1ccc(C#N)cn1
(B) C[C@H](NC(=O)CN1Cc2c(F)cccc2NC1=O)c1ccc(F)cc1F
Field: lower Rabbit Psoas IC25 | Options: A / B Identify your pick by its label.
B
(B: 62 nM, A: 2013 nM)

(I) Cc1nc([C@H](C)NC(=O)CN2Cc3c(ccc(F)c3F)NC2=O)ncc1C#N
(II) N#Cc1cnc2c(c1)OC[C@@H]2NC(=O)CN1C(=O)Nc2ccc(F)c(F)c2C12CC2
Returns the identifier with the smallest measured Rabbit Psoas IC25 among I and II . The response must carry the label of the picked entry.
II
(II: 30 nM, I: 2490 nM)
